Attribution: patent US20220033501A1

Molecular target: T1, human TIM-3 protein with hFc tag (hTIM-3-hFc protein) (human, UniProt Q8TDQ0 22-200)
T1 construct: also called immunogen 1; human TIM-3 extracellular domain protein; not shown: human IgG Fc fragment (hFc) of the pCpC vector
T1 sequence: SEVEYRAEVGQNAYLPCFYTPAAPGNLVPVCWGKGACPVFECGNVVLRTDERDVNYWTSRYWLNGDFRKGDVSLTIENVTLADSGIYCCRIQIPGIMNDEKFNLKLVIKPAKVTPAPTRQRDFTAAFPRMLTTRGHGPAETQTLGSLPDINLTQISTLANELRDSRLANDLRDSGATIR
Assay: ELISA, coated hTIM-3-hFc; antibody 0.0067 nM
This listing pairs binders with measured OD450.
Answer with a number only.

Worked cases, answers included:
Binder | Reported Result
34B6D8 (TIM-3 antibody purified from hybridoma, chimeric antibody of Example 2) (antibody, V domains shown, From hybridoma of Harbour H2L2 transgenic mice: human variable regions, rat constant regions) VH: EVQLVESGGGLVQPGGSLRLSCAASGFTFSTYWMTWVRQAPGKRLEWVANIKQGGGDKYYVDSVKGRFTISTDNAKNSLYLQMNSLRAEDTAVYYCARGSNWFDPWGQGTLVTVSS VL: EIVMTQSPATLSMSPGERATLSCRASQSVYDNLAWYQQKPGQAPRLLIYGASTRATGIPARFSGSGSGTEFTLTISSLQSEDFALYYCQQYTHWPITFGQGTRLEIK | 0.33
18D2H2 (TIM-3 antibody purified from hybridoma, chimeric antibody of Example 2) (antibody, V domains shown, From hybridoma of Harbour H2L2 transgenic mice: human variable regions, rat constant regions) VH: EVQLVESGGDLVQPGGSLRLSCAASGFTFSTYWMTWVRQAPGRGLEWVANIKQDGSAKYYVDSVKGRFTLSRDDAKNSLYLQMNSLRAEDTAVYYCARGSNWFDYWGQGTLVTVSS VL: ETVMTQSPATLSVSPGERATLSCRANQNVYSNLAWYQQKPGQAPRLLIYDASTRATGFPARFSGSGSGTEFTLTISSLQSEDFAVYYCQQYNNWPLTFGGGTKVEIK | 0.16
7A4F10 (TIM-3 antibody purified from hybridoma, chimeric antibody of Example 2) (antibody, V domains shown, From hybridoma of Harbour H2L2 transgenic mice: human variable regions, rat constant regions) VH: EVQLLESGGGLVQPGGSLRLSCAASGFTFRTHLISWVRQAPGKGLEWVAAITGSGGSTYYADSVKGRFIISRDNSKNTLFLQMNSLRAEDTAVYYCAKDGGSGSYDDFWGQGTLVTVSS VL: ETVLTQSPVTLSLSPGERATLSCRASQSVGSYLAWYQQKPGQAPRLLIYDASNRATGIPARFSGSGSGTDFTLTISSLEPEDFAVYYCQQRSNWPPTFGQGTKVEIK | 0.13
39E5H1 (TIM-3 antibody purified from hybridoma, chimeric antibody of Example 2) (antibody, V domains shown, From hybridoma of Harbour H2L2 transgenic mice: human variable regions, rat constant regions) VH: EVQLVESGGGLVQPGGSLRLSCAASGFTFSSYWMSWVRQAPGKGLEWVANIKRGGSERYYVDSVKGRFTISGDNAKNSVYLQMNSLRAEDTAVYYCARGSNWFDPWGQGTLVTVSS VL: ETVMTQSPAILSVSPGERATLSCRASQSVYSNLAWYQQKLGQAPRLLIYDASTRATGIPARFSGSGSGTEFTLTISSLQSEDFAVYYCQQYNNWPITFGQGTRLEIK | 0.42
134H3G6 (TIM-3 antibody purified from hybridoma, chimeric antibody of Example 2) (antibody, V domains shown, From hybridoma of Harbour H2L2 transgenic mice: human variable regions, rat constant regions) VH: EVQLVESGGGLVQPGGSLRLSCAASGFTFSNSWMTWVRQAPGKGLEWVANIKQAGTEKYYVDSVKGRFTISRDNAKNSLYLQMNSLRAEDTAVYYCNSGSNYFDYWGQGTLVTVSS VL: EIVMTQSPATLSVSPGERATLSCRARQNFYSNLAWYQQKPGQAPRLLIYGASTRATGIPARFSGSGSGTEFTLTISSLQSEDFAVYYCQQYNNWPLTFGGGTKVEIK | 0.13

In the following, a different binder is considered.
Query: Complete the entry with OD450 for 57F4E5 (TIM-3 antibody purified from hybridoma, chimeric antibody of Example 2) (antibody, V domains shown, From hybridoma of Harbour H2L2 transgenic mice: human variable regions, rat constant regions) VH: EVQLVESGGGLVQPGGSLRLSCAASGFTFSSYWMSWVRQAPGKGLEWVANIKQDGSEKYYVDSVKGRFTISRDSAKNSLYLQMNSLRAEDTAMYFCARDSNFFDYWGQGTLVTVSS VL: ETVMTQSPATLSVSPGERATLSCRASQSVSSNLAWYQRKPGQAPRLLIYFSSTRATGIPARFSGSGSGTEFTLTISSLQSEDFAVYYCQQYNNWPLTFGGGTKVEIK
Reply: 0.63
